Origin of the recorded values: paper PMC8799559

Experiment: Population pharmacokinetics
Assay type: in vivo, human
Settings: human, plasma, oral
outcomeMeasure: half-life (h)
Response body: numeric value in h, unit text excluded.

Incoming: Quick one: give measured half-life for "CC1(C)CCC(CN2CCN(c3ccc(C(=O)NS(=O)(=O)c4ccc(NCC5CCOCC5)c([N+](=O)[O-])c4)c(Oc4cnc5[nH]ccc5c4)c3)CC2)=C(c2ccc(Cl)cc2)C1"
Outgoing: 25.2
